Target: human GPR120 (Homo sapiens, UniProt Q5NUL3)
Sequence (Q5NUL3 1-361): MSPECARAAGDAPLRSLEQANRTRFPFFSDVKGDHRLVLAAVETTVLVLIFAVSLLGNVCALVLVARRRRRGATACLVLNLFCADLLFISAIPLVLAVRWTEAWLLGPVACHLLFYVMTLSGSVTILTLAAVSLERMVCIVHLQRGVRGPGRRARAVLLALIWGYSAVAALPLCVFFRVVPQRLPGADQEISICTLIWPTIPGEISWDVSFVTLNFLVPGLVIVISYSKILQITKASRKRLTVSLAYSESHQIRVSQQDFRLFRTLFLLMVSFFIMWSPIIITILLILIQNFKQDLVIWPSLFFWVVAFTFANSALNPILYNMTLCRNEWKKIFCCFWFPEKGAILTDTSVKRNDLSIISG
Experiment: Human GPR120 IP1 Assay (inositol phosphate turnover, CisBio IP-One kit)
Conditions: IP1 accumulation in CHO-K1 cells stably expressing the short form of human GPR120; 60 min compound incubation; 4-parameter fit; read-out: hGPR120 EC50
Documented log10 of EC50 across a set of molecules
measurement.kind: log10 of EC50 (log10 of the value in nM)

Cc1ccc(-n2nc(C)c(Cl)c2N2CCc3cc(CCC(=O)O)ccc3C2)cc1: 1.75
O=C(O)CCc1ccc2c(c1)CCN(c1cc(SC3CCC3)ncc1F)C2: 1.99
O=C(O)CCc1ccc2c(c1F)CCN(c1c(-c3ccc(Cl)cc3)nsc1C(F)(F)F)C2: 3.21
CC1c2ccc(CCC(=O)O)cc2CCN1c1cc(OC2CCC2)cc(F)c1Cl (stereo not drawn): 2.58
O=C(O)[C@H]1C[C@@H]1c1ccc2c(c1)CCN(c1cc(OC(F)(F)F)ccc1F)C2: 2.04
COc1cc(F)c(N2CCc3cc(CCC(=O)O)ccc3C2)cc1OC1CCC1: 2.26
Cc1ccc(-n2nc(C)c(Cl)c2N2CCc3c(ccc(CCC(=O)O)c3F)C2)cc1: 2.49
CC(CC(=O)O)c1ccc2c(c1)CCN(c1cc(OC(F)(F)F)ccc1F)C2 (stereo not drawn) [Example 7]: 2.73
C[C@H]1C[C@H](Oc2cc(F)c(F)c(N3CCc4cc([C@@H]5C[C@H]5C(=O)O)ccc4C3)c2)C1: 2.44
O=C(O)[C@H]1C[C@@H]1c1ccc2c(c1)CCN(Cc1cc(C(F)(F)F)cc(Cl)c1F)C2: 2.54
N#Cc1c(F)cc(OC2CCC2)cc1N1CCc2cc(CCC(=O)O)ccc2C1: 1.40
N#Cc1ccc(OC(F)(F)F)cc1N1CCc2c(ccc(CCC(=O)O)c2F)C1: 1.28
O=C(O)[C@H]1C[C@@H]1c1ccc2c(c1)CCN(c1cc(OC3CCC3)cc(Cl)c1F)C2: 1.77
O=C(O)[C@H]1C[C@@H]1c1ccc2c(c1F)CCN(c1cc(OC(F)(F)F)cc(Cl)c1F)C2: 2.48
O=C(O)CCc1ccc2c(c1F)CCN(c1cc(OC3CCC3)ccc1F)C2 [Example 81]: 1.68
Cc1ccc(-n2nc(C)c(F)c2CN2CCc3cc(CCC(=O)O)ccc3C2)cc1: 2.60
C[C@H]1C[C@H](Oc2cc(F)c(F)c(N3CCc4c(ccc([C@H]5C[C@@H]5C(=O)O)c4F)C3)c2)C1 [Example 122]: 2.08
COc1cc(C#N)c(N2CCc3cc(CCC(=O)O)ccc3C2)cc1OC1CCC1: 2.90
O=C(O)[C@@H]1C[C@H]1c1ccc2c(c1F)CCN(c1cc(OC(F)(F)F)ccc1F)C2: 1.77
COc1cc(F)c(N2CCc3cc(CCC(=O)O)ccc3C2)cc1Oc1ccc(C)cn1: 2.23
O=C(O)CCc1ccc2c(c1)CCN(c1cc(Oc3ccccn3)cc(C(F)F)c1F)C2: 1.23
N#Cc1cc(OC(F)(F)F)cc(N2CCc3c(ccc([C@H]4C[C@@H]4C(=O)O)c3F)C2)c1F [Example 107]: 2.09
O=C(O)[C@@H]1C[C@H]1c1ccc2c(c1F)CCN(c1cc(OC(F)(F)F)cc(F)c1Cl)C2: 1.86
O=C(O)CCc1ccc2c(c1)CCN(c1cc(OC3CCC3)cc(C(F)F)c1F)C2: 1.15
CO[C@H]1C[C@H](Oc2cc(F)c(F)c(N3CCc4c(ccc(CCC(=O)O)c4F)C3)c2)C1: 1.61
O=C(O)CCc1ccc2c(c1)CCN(c1cc3c(C(F)(F)F)noc3cc1F)C2: 2.23
Cc1ccc(-n2nc(C)c(Cl)c2N2CCc3cc(CCCCC(=O)O)ccc3C2)cc1: 1.97
O=C(O)[C@@H]1C[C@H]1c1ccc2c(c1)CCN(c1cc(OC3CCC3)cc(F)c1F)C2: 1.60
CC1c2ccc(CCC(=O)O)cc2CCN1c1cc(OC2CCC2)ccc1F (stereo not drawn) [Example 6]: 2.62
COc1ccc(-n2nc(C)c(C#N)c2N2CCc3cc(CCC(=O)O)ccc3C2)cc1: 3.17
Cc1nn(-c2ccc(F)cc2)c(N2CCc3cc(C4CC4C(=O)O)ccc3C2)c1F (stereo not drawn) [Example 95]: 2.69
CC1c2ccc(CCC(=O)O)cc2CCN1c1cc(OC2CCC2)ccc1F (stereo not drawn) [Example 39]: 2.62
CC1c2ccc(CCC(=O)O)cc2CCN1c1cc(OC2CCC2)cc(F)c1F (stereo not drawn) [Example 49]: 2.35
